Substrate: C[C@H](NC(=O)CCC(=O)O)C(=O)N[C@@H](C)C(=O)N1CCC[C@H]1C(=O)N[C@@H](Cc1ccccc1)C(=O)Nc1ccc([N+](=O)[O-])cc1
measurementDescription: Kinetic parameters for hydrolysis of synthetic peptide substrate
Type: biochemical, Bacillus lentus
cond: other: Table III, 0.1 M Tris-HCL buffer, pH 8.6, 25° C.
metricName: kcat

1. Bacillus lentus subtilisin variant N76D/S99D/S101R (Protease #7) (Lederbergia lenta; N74D/S97D/S99R) (protein, The mature subtilisin protein is coded by the codons beginning at the codon GCG (334-336) corresponding to Ala; made in house; host or cells: Bacillus subtilis) AQSVPWGISRVQAPAAHNRGLTGSGVKVAVLDTGISTHPDLNIRGGASFVPGEPSTQDGNGHGTHVAGTIAALDNSIGVLGVAPSAELYAVKVLGADGRGSVSSIAQGLEWAGNNGMHVANLSLGSPSPSATLEQAVNSATSRGVLVVAASGNSGAGSISYPARYANAMAVGATDQNNNRASFSQYGAGLDIVAPGVNVQSTYPGSTYASLNGTSMATPHVAGAAALVKQKNPSWSNVQIRNHLKNTATSLGSTNLYGSGLVNAEAATR
146 s⁻¹
